For each of the compounds below, state its Ratio.
target: Hexokinase-4 (Homo sapiens) (UniProt P35557); experiment: Activation of human recombinant glucokinase expressed in Escherichia coli coexpressing G6PDH at 10 uM using 20 mM glucose measured as ratio of enzyme activation in treated to untreated control by G6PDH coupled continuous spectrophotometric assay
Sequence (P35557 whole entry): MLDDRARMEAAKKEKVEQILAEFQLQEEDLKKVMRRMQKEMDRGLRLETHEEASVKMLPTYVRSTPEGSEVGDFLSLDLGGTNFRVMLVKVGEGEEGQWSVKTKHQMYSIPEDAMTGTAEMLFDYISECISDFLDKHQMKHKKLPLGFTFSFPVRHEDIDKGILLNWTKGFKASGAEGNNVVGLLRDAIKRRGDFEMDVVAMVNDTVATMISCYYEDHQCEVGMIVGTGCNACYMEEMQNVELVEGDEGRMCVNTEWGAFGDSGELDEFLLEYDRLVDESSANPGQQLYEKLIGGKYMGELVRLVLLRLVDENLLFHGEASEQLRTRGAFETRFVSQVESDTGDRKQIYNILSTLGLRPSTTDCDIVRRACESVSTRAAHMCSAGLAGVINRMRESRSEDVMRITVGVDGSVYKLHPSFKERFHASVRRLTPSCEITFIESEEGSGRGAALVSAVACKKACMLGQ
Number, no unit, nothing else.

Task: Which Ratio is listed for Cc1oc(CO)cc1C(=O)Nc1nc2c(s1)CCC2 ?
Result: 1.08

Task: Another compound: Cc1oc(CCC(=O)N(C)C)cc1C(=O)Nc1nc2c(s1)CCC2
Result: 1.29

Task: Another compound: O=C(Nc1nc2c(s1)CCCC2)C1CCCO1 (centres undefined)
Result: 1.03

Task: Another compound: Cc1cc(C(=O)Nc2nc3c(s2)C2CCC3C2)c(C)o1 (centres undefined)
Result: 1.02

Task: Another compound: COC(=O)c1ccccc1-c1cc(C(=O)Nc2nc3c(s2)CCC3)c(C)o1
Result: 1.1

Task: Another compound: Cc1csc(NC(=O)c2cc(C)oc2C)n1
Result: 1.15

Task: Another compound: COC(=O)c1ccc(NC(=O)c2cc(C)oc2C)nc1
Result: 1.19

Task: Another compound: Cc1oc(-c2ccccc2)cc1C(=O)Nc1nc2c(s1)CCCC2
Result: 0.89

Task: Another compound: CC(=O)c1cc(C(=O)Nc2nc3c(s2)CCC3)c(C)o1
Result: 0.99

Task: Another compound: CCc1sc(-c2ccccc2S(C)(=O)=O)cc1C(=O)Nc1nc2c(s1)CCC2
Result: 1.41

Task: Another compound: O=C(Nc1nc2c(s1)CCCC2)c1ccccn1
Result: 0.99

Task: Another compound: CC(=O)c1ccccc1-c1cc(C(=O)Nc2nc3c(s2)CCCC3)c(C)s1
Result: 1.49

Task: Another compound: O=C(Nc1nc2c(s1)CCCC2)c1cccnc1
Result: 0.97

Task: Another compound: CC(=O)c1ccccc1-c1cc(C(=O)Nc2nc3c(s2)CCC3)c(C)o1
Result: 1.63

Task: Another compound: Cc1cc(C(=O)Nc2nc3c(s2)CCC3(C)C)c(C)o1
Result: 0.95

Task: Another compound: Cc1cc(C(=O)Nc2nc3c(s2)CCC3)c(C)o1
Result: 1.42

Task: Another compound: Cc1oc(-c2ccccc2C(=O)O)cc1C(=O)Nc1nc2c(s1)CCC2
Result: 0.94

Task: Another compound: Cc1cc(C(=O)Nc2nc3c(s2)CCCC3)no1
Result: 1.06

Task: Another compound: CC(=O)c1cccc(-c2cc(C(=O)Nc3nc4c(s3)CCC4)c(C)o2)c1
Result: 0.93

Task: Another compound: COc1ccc(-c2cc(C(=O)Nc3nc4c(s3)CCC4)c(C)o2)cc1OC
Result: 0.83

Task: Another compound: CCc1sc(-c2ccccc2S(C)(=O)=O)cc1C(=O)Nc1nc2c(s1)CCCC2
Result: 0.95

Task: Another compound: CCc1oc(-c2ccccc2C(C)=O)cc1C(=O)Nc1nc2c(s1)CCCC2
Result: 1.25

Task: Another compound: CCc1oc(-c2ccccc2S(C)(=O)=O)cc1C(=O)Nc1nc2c(s1)CCC2
Result: 1.39

Task: Another compound: Cc1oc(-c2cccc(O)c2)cc1C(=O)Nc1nc2c(s1)CCC2
Result: 0.9
